# measurement protocol: inhibitors of TNFa-induced NFkB p65 translocation, primary screen, imaging, HUVEC, MLSMR starter and 10KST1 sets (AID 438);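 note: compound added about 3h40 before a 20 min TNFalpha stimulation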
# condition description: HUVEC TNFa-induced p65 nuclear translocation; measured here: nuclei count (cytotoxicity indicator), at 2.08 µM
measure: cell count

- compound: "COc1ccc(OC)c(NC(=O)CSc2nnc(-c3ccco3)n2-c2ccc(C(=O)O)cc2)c1"
  measure: "cell count"
  recorded value: 494
- compound: "N[C@@H](C(=O)N[C@@H]1C(=O)N2C(C(=O)O)=C(Cl)CS[C@H]12)c1ccccc1"
  measure: "cell count"
  recorded value: 693
- compound: "CO[C@H]1C[C@@H]2CC[C@@H](C)[C@@](O)(O2)C(=O)C(=O)N2CCCC[C@H]2C(=O)O[C@H]([C@H](C)C[C@@H]2CC[C@@H](O)[C@H](OC)C2)CC(=O)[C@H](C)C=C(C)[C@@H](O)[C@@H](OC)C(=O)[C@H](C)C[C@H](C)C=CC=CC=C1C"
  measure: "cell count"
  recorded value: 629
- compound: "CCc1cc(=O)oc2c(CN3CCCC3)c(O)c(Cl)cc12"
  measure: "cell count"
  recorded value: 285
- compound: "Cc1cc(Cn2ccnc2)c(C)cc1Cn1ccnc1"
  measure: "cell count"
  recorded value: 637
- compound: "COc1ccccc1N=Cc1nc(-c2ccccc2)oc1OC(C)=O"
  measure: "cell count"
  recorded value: 451
- compound: "CC(C)(C)c1ccc(C(=O)C=[N+]=[N-])cc1"
  measure: "cell count"
  recorded value: 519
- compound: "CSCCC(CO)NC(=O)OCc1ccccc1 (stereo not given)"
  measure: "cell count"
  recorded value: 562
- compound: "c1coc(-c2nnc3sc(-c4cccs4)nn23)c1"
  measure: "cell count"
  recorded value: 471
- compound: "N#CC(C(=O)NC1CCCCC1)c1nc2ccccc2nc1N1CCN(c2ccccc2F)CC1 (stereo not given)"
  measure: "cell count"
  recorded value: 449

----------
# measurement protocol: inhibitors of E-selectin induction by TNFa, primary screen, imaging, HUVEC, immunofluorescence, MLSMR starter and 10KST1 sets (AID 487);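 note: signal is fraction of cell area covered by stained E-selectin grains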
# condition description: HUVEC TNFalpha-induced E-selectin immunofluorescence imaging, at 2 µM; stronger effect = higher value
The source made the active and inactive calls.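 How the source made its calls: active means visually confirmed hit in the image check and inhibition above 20%; inconclusive means visually confirmed hit but inhibition not above 20%; inactive means no visual hit in the image check.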
Here the recorded inhibition is given for each entry.

- molecule: "CN1CCC2(CC1)C1CN(C)CC=C1C(C#N)=C(N)C2(C#N)C#N (configuration not stated)"
  inhibition: "-165% (inactive)"
- molecule: "CCCC(=O)Nc1ncnc2c1ncn2[C@@H]1O[C@@H]2COP(=O)(O)O[C@H]2[C@H]1OC(=O)CCC"
  inhibition: "-67.8% (inactive)"
- molecule: "CC(=Nc1ccc(C)c(C)c1)C1=C(O)CCC1=O"
  inhibition: "-30.7% (inactive)"
- molecule: "O=C(NO)c1ccccc1O"
  inhibition: "-35.8% (inactive)"
- molecule: "CCCCn1c2nc3ccccc3nc2c2c(=O)n(CC(C)C)cnc21"
  inhibition: "21.4% (inactive)"
- molecule: "c1ccc(-c2nnc3n2N=C(c2ccc4c(c2)OCO4)CS3)nc1"
  inhibition: "-177% (inactive)"
- molecule: "CCOc1cccc(-c2nn3c(-c4ccco4)nnc3s2)c1"
  inhibition: "-310% (inactive)"

----------
# measurement protocol: DUSP6 inhibitors restoring Erk phosphorylation by chemical complementation, primary imaging in DUSP6-transfected HeLa (AID 609)
# condition description: HeLa MKP-3 transfected, phospho-Erk imaging KS statistic; measured here: cell density z-score; at 10 µM; cells stimulated with TPA for 15 min
Give satisfied when the value for z-score is at least 0.4. Give not satisfied when it is less.

- compound: "NS(=O)(=O)c1cc2c(cc1Cl)NC=NS2(=O)=O"
  answer label: "satisfied"
- compound: "CCCCOC(=O)CSC1=C(C#N)C(c2ccccc2OC)C(C#N)C(=O)N1 (centres undefined)"
  answer label: "not satisfied"
- compound: "CCCCCSc1nc(O)cc(=O)[nH]1"
  answer label: "not satisfied"
- compound: "Cc1ccc(S(=O)(=O)N2CCN(c3nc(C(C)C)c4c(c3C#N)CC(C)(C)OC4)CC2)cc1"
  answer label: "satisfied"
- compound: "CCOC(=O)c1c(C)n(C)c2ccc(OC)c(NC(=O)CN3CCSCC3)c12"
  answer label: "not satisfied"
- compound: "Cc1cc(N2CCN(C3CCCC3)CC2)n2c(nc3ccccc32)c1C#N"
  answer label: "satisfied"
- compound: "CN1CCN(C(=O)CSc2nc(-c3cccs3)ccc2C#N)CC1"
  answer label: "not satisfied"
- compound: "COc1cccc(C2C(C#N)=C(N)Oc3cc(C)[nH]c(=O)c32)c1OC (centres undefined)"
  answer label: "not satisfied"
- compound: "OCCCc1nc2ccccc2n1CCc1ccccc1"
  answer label: "satisfied"
- compound: "COc1ccc(NC(=O)C2CSC3c4ccccc4C(=O)N23)cc1 (centres undefined)"
  answer label: "not satisfied"
- compound: "CCOC(=O)COn1c(=O)c(-c2ccco2)[n+]([O-])c2ccccc21"
  answer label: "satisfied"
- compound: "CC(=O)C1=C(O)C(=O)N(Cc2cccnc2)C1c1ccccc1Cl (centres undefined)"
  answer label: "satisfied"
- compound: "OC1CN=C2Sc3ccccc3N2C1 (centres undefined)"
  answer label: "not satisfied"
- compound: "Cc1nc(/N=C(\\N)Nc2ccccc2)nc2ccccc12"
  answer label: "not satisfied"
- compound: "CCN1C(=O)CC(N2CCN(c3ccc(OC)cc3)CC2)C1=O (centres undefined)"
  answer label: "satisfied"
- compound: "Cc1ccc(-n2c(=O)c3c4c(sc3n3c(C)nnc23)COC(C(C)C)C4)cc1 (centres undefined)"
  answer label: "satisfied"
- compound: "CC1(C)Nc2ccc(O)cc2-c2c1ssc2=S"
  answer label: "not satisfied"
- compound: "Brc1cccc(-c2cnc3n2CCCCC3)c1"
  answer label: "not satisfied"
- compound: "CCOc1nc(SCCOc2ccc(C)cc2)nc(N(C)C)n1"
  answer label: "satisfied"
- compound: "COc1ccccc1-c1nn2c(-c3ccc(C(C)(C)C)cc3)nnc2s1"
  answer label: "not satisfied"
- compound: "COc1cc([C@@H]2[C@H]3CN(C)CC=C3C(C#N)=C(N)C2(C#N)C#N)cc2c1OCO2"
  answer label: "satisfied"
- compound: "O=C(Nc1nc(NC(=O)c2ccco2)n(-c2ccccc2)n1)c1ccccc1"
  answer label: "satisfied"
- compound: "CCCC(=O)O[C@]1(C(=O)COC(C)=O)CC[C@H]2[C@@H]3C[C@H](F)C4=CC(=O)C=C[C@]4(C)[C@@]3(F)[C@@H](O)C[C@@]21C"
  answer label: "not satisfied"
- compound: "CCC12CN3CC(CC)(CN(C1)C3c1c(O)ccc3ccccc13)C2=O (centres undefined)"
  answer label: "not satisfied"
- compound: "CCOC(=O)CC(C#N)c1cn(C)c2ccccc12 (centres undefined)"
  answer label: "not satisfied"
- compound: "CCN1CC=C2C(C#N)=C(N)C(C#N)(C#N)[C@H](c3cccc(OC)c3OC)[C@H]2C1"
  answer label: "satisfied"
- compound: "CC(=O)OCC(=O)[C@@]1(O)CC[C@H]2[C@@H]3CCC4=CC(=O)CC[C@]4(C)[C@H]3[C@@H](O)C[C@@]21C"
  answer label: "not satisfied"
- compound: "CCCc1cc(=O)oc2c(CN3CCCC3)c(O)c(Cl)cc12"
  answer label: "satisfied"
- compound: "NNC(=O)c1ccncc1"
  answer label: "satisfied"

Values from PubChem BioAssay
